Test: inhibitors of poly I:C-induced TLR3 signaling, primary screen, cell-based, poly I:C stimulus, luciferase, 10K MLSCN set (AID 602277)
Details: HEK293-TLR3 RL24 IRF3 luciferase reporter, at 10 µM, stronger effect = higher value
// map inhibition onto a label; ranges lower level: < 10%; middle level: ≥ 10% and < 20%; upper level: ≥ 20%

Classify this molecule: Cc1ccc(O)c(C(CC(=O)N2CCCC2)c2ccccc2)c1 (stereo unspecified)
middle level

Classify this molecule: COc1ccc(C2CC(c3cccs3)n3nc(N)nc3N2)cc1 (stereo unspecified)
lower level

Classify this molecule: COc1cccc(-c2nc(CS(=O)(=O)CC(=O)N3CCc4ccccc4C3)c(C)o2)c1
middle level

Classify this molecule: O=C(NCc1ccc2c(c1)OCO2)c1cccc2c1C(=O)N(C1CCCCC1)C2
middle level

Classify this molecule: CC(C)CN(C(=O)c1ccc(=O)n(C)n1)c1nc2ccccc2s1
lower level

***
Classify this molecule: O=C1CCc2cc(S(=O)(=O)N3CCC(C(=O)Nc4nccs4)CC3)ccc2N1
upper level

Classify this molecule: COC(=O)CSC1=C(C#N)C(c2ccc(F)cc2)CC(=O)N1 (stereo unspecified)
middle level

Classify this molecule: COc1cccc(CNC(=O)C2CCN(C(=O)N(C)C)CC2)c1
upper level

Classify this molecule: O=C(NCc1ccco1)c1cc2cc3ccc(Cl)cc3nc2o1
lower level

Classify this molecule: Nc1cc(-c2ccc(Br)cc2)nn1S(=O)(=O)c1ccccc1
upper level
